Tested on: Microdochium nivale
Experiment: Test 1 for antifungal effect, plate medium: M.n
Format: cell-based
Conditions: 2.50 mg/L, PDA plate medium
Measured Antifungal index (mycelial growth inhibition rate), listed per entry for reference.

# Compound, Value
measured = [
    ("CC1(CCl)CCC(Cc2ccc(F)cc2)C1(O)Cn1cncn1 (single isomer, unassigned) [Compound (1-2b)]", "2 (Less than 70% but not less than 60%)"),
]

### Prompt May I ask what Antifungal index (mycelial growth inhibition rate) has been recorded for CC1(CCl)CCC(Cc2ccc(Cl)cc2)C1(O)Cn1cncn1 (single isomer, unassigned) [Compound (1-1b)] ?
### Response 3 (Less than 80% but not less than 70%)

### Prompt Now consider CC1(CCl)CCC(Cc2ccc(Cl)cc2)C1(O)Cn1cncn1 (single isomer, unassigned) [Compound (1-1a)] and answer again.
### Response 5 (90% or greater)

### Prompt Queued: CC1(CCl)CCC(Cc2ccc(F)cc2)C1(O)Cn1cncn1 (single isomer, unassigned) [Compound (1-2a)]
### Response 5 (90% or greater)
